- TARGET_DESC: Sialic acid-binding Ig-like lectin 9 (Homo sapiens)
- ASSAY_DETAILS: Hs-Siglec9 ALPHAscreen SOP 20170721
- Parameters: scale not given: direction of the effect not stated beside the values
- RUN_PARAMETERS: 10 µM

COMPOUND	VALUE_UNIT	Percent Effect
Cc1nn(C)c2sc(C(=O)N3CCCC(n4ccnc4C)C3)cc12 (stereo not drawn)	%	2.66
CC(=O)c1ccc(N2CCC(CO)(CCOc3ccccc3)CC2)nc1	%	4.67
COCCCC1(CO)CCCN(CCS(C)(=O)=O)C1 (stereo not drawn)	%	-1.71
O=C1NC(c2ccccc2)=N[C@@]12CC[C@@H]1CN(Cc3ccccc3)C[C@@H]12	%	0.12
Cc1cnn(CCNCC(O)COc2ccc(C#N)cc2)c1 (stereo not drawn)	%	8.11
COc1ccc(NC(=O)CCC2CCCN(Cc3ncon3)C2)cc1Cl (stereo not drawn)	%	17.1
Cc1cccc(C(=O)Nc2ccc(OC3CCN(C)CC3)cc2)c1	%	12
CCCC(=O)N1CCC(O)(Cn2c(CC)nc3ccccc3c2=O)CC1	%	-2.15

* * *

- TARGET_DESC: Tyrosyl-tRNA synthetase, putative (Trypanosoma cruzi (strain CL Brener)) (UniProt Q4DSP6)
- Sequence (Q4DSP6 as listed by the source): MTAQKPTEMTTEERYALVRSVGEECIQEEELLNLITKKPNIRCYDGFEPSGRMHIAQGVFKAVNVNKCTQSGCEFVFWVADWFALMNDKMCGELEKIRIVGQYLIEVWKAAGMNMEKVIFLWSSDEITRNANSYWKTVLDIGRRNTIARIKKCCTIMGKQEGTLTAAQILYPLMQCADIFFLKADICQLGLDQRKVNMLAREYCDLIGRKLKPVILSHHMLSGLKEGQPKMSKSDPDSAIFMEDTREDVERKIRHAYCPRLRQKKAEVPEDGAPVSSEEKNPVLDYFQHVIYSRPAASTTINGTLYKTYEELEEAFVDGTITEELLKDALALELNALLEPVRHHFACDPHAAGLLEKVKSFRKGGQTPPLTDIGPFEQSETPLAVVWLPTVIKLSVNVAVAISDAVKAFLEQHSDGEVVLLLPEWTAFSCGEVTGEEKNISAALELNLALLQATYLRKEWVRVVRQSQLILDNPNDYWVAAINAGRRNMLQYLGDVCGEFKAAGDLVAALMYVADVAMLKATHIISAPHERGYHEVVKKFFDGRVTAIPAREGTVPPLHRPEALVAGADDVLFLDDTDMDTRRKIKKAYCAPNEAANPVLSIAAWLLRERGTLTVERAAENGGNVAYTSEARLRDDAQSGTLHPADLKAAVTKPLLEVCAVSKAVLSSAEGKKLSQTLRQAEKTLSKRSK
- ASSAY_DETAILS: Trypanosoma cruzi tyrosyl tRNA synthetase (TcYRS) SOP
- Type: functional
- Design: scale not given: direction of the effect not stated beside the values
- RUN_PARAMETERS: 30 µM
MEASUREMENT_NAME: Percent Effect (%)

COMPOUND	MEASUREMENT_NAME	MEASURED_NUMBER
COC(=O)C(C)(C)NC(=O)C1CC(=O)N(C)C1 (stereo unspecified)	Percent Effect	8.64
CN(c1ccc(C(C)(C)C)cc1)S(=O)(=O)c1cc(C(=O)O)cs1	Percent Effect	1.24
O=C(CCCc1ccc(F)cc1)N1C[C@@H](CN2CCOCC2)[C@@H](CO)C1	Percent Effect	12.5
COCCNc1nc(C2CCCC2)nc2c1CCNCC2	Percent Effect	19.5
Cc1cc(C)n(CC2CCCN2C(=O)c2cnn(C)c2C2CC2)n1 (stereo unspecified)	Percent Effect	1.22
Cc1cccc(S(=O)(=O)NCC(C)N2CCN(C)CC2)c1Cl (stereo unspecified)	Percent Effect	3.7
Cc1cc(C)n(C2CCCN(C(=O)CCCNc3ncccn3)C2)n1 (stereo unspecified)	Percent Effect	20.2
CCc1nc2n(n1)CC(NCc1ccnc(-c3ccccc3)n1)CC2 (stereo unspecified)	Percent Effect	6.17
COc1ncccc1NC(=O)C1CC(=O)N(Cc2ccccn2)C1 (stereo unspecified)	Percent Effect	13
COCC1c2c(cnn2C)CCN1Cc1ccc(F)cc1 (stereo unspecified)	Percent Effect	8.54
CC(C)c1cnc(CNc2c(F)cccc2-n2cccn2)o1	Percent Effect	0
CC(=O)N1CCn2cc(CNC(=O)c3cccn3C)nc2C1	Percent Effect	14.1
CCC1=N[C@@]2(CC[C@@H]3CN(C(=O)Nc4ccc(F)cc4)C[C@@H]32)C(=O)N1	Percent Effect	8.54
O=S1(=O)CCCN1Cc1coc(-c2cccs2)n1	Percent Effect	12.8
CC(=O)N1[C@H](Cn2cncn2)C[C@@H]2CN(c3ccc(C)nn3)CC[C@@H]21	Percent Effect	1.24
CCC(C)(C)NC(=O)C1CC(=O)N(CC2CC2)C1 (stereo unspecified)	Percent Effect	-18.3
COc1cc(C)c(CN2CCC3(CC2)C(C(=O)O)CC(=O)N3C)cc1C (stereo unspecified)	Percent Effect	18.5
O=C(CCNC(=O)c1ccoc1)NCc1ccccc1F	Percent Effect	18.8
O=C(c1ccoc1)N1CC[C@@H]2O[C@H](COCc3ccccn3)CC[C@@H]21	Percent Effect	10.3
COc1c(CNCCNC(=O)c2ccc(C)cc2)c(C)nn1C	Percent Effect	28.1
Cc1noc2ncc(C(=O)N(CC3CCOC3)C3CC3)cc12 (stereo unspecified)	Percent Effect	4.88

* * *

- TARGET_DESC: Chromo domain-containing protein 1 (Saccharomyces cerevisiae (strain ATCC 204508 / S288c) (Baker's yeast))
- ASSAY_DETAILS: ScCHD-1 Enzyme Inhibition Assay; note: in the data most compounds retested in dose-response had high values
- Format: functional
- Parameters: scale not given: direction of the effect not stated beside the values
- RUN_PARAMETERS: 30 µM
Reported Percent Effect values for a set of compounds

COMPOUND	Percent Effect
CS(=O)(=O)CCSc1cccc(C#N)c1	-0.524%
CC(=O)N1CCN(C)CC(COCc2ccccc2)C1 (stereo not drawn)	-11.4%
O=C([C@@H]1C[C@@H]2CCN(CCc3ccccc3)C[C@H]2O1)N1CCCC1	0.575%

* * *

- TARGET_DESC: Sialic acid-binding Ig-like lectin 9 (Homo sapiens) (UniProt Q9Y336)
- Sequence (Q9Y336 whole entry): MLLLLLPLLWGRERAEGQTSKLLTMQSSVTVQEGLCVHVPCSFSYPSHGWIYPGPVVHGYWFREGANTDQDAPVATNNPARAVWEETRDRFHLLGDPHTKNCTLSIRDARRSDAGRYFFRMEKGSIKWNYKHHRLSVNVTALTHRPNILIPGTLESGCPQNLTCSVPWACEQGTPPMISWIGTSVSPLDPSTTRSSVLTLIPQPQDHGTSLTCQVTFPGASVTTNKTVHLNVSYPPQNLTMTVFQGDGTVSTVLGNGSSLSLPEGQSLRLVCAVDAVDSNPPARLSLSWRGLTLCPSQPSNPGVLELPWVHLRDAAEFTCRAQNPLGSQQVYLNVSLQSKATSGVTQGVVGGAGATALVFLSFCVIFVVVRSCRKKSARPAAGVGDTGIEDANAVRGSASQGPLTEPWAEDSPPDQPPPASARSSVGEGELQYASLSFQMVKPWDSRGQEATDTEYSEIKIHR
- ASSAY_DETAILS: Hs-Siglec9 ALPHAscreen SOP 20170721
- Design: scale not given: direction of the effect not stated beside the values
- RUN_PARAMETERS: 10 µM
Percent Effect reference

COMPOUND	TARGET_DESC	Percent Effect (%)
CC(Sc1nnnn1C1CCOCC1)C(=O)NC1CCCCC1 (stereo not given)	Sialic acid-binding Ig-like lectin 9 (Homo sapiens) (UniProt Q9Y336)	37.4
Cc1nc(C2CCCN(C(=O)CCCn3cccn3)C2)no1 (stereo not given)	Sialic acid-binding Ig-like lectin 9 (Homo sapiens) (UniProt Q9Y336)	4.64
CCc1ncc(CN(C)C(=O)Nc2cccnc2N2CCCC2)s1	Sialic acid-binding Ig-like lectin 9 (Homo sapiens) (UniProt Q9Y336)	8.15
Cc1noc(NC(=O)c2ccc(Br)cc2)n1	Sialic acid-binding Ig-like lectin 9 (Homo sapiens) (UniProt Q9Y336)	4.49
O=C(c1cccnc1)N1CCCC(c2cc(C(F)F)n3ncnc3n2)C1 (stereo not given)	Sialic acid-binding Ig-like lectin 9 (Homo sapiens) (UniProt Q9Y336)	2
Cc1nc(CN2CCCC(N(C)Cc3c(C)noc3C)C2)no1 (stereo not given)	Sialic acid-binding Ig-like lectin 9 (Homo sapiens) (UniProt Q9Y336)	-1.55
Cc1cccc(NC(=O)N2CCCn3cnc(CN4CCCC4)c3C2)c1	Sialic acid-binding Ig-like lectin 9 (Homo sapiens) (UniProt Q9Y336)	-1.77
CCn1cnnc1C1CCN(C(=O)c2ccc(C(=O)OC)s2)CC1	Sialic acid-binding Ig-like lectin 9 (Homo sapiens) (UniProt Q9Y336)	9.21
Cc1ccc(C(=O)N2CCCC2c2nnc3n2CCCCC3)o1 (stereo not given)	Sialic acid-binding Ig-like lectin 9 (Homo sapiens) (UniProt Q9Y336)	-3.27
CC(C)OCc1ccc(CNC(=O)CC(F)(F)F)cc1	Sialic acid-binding Ig-like lectin 9 (Homo sapiens) (UniProt Q9Y336)	-0.714
CCCNC(=O)CCC(=O)Nc1ccc(-n2cncn2)c(F)c1	Sialic acid-binding Ig-like lectin 9 (Homo sapiens) (UniProt Q9Y336)	4.31
O=C1NCCN1C1CCN(Cc2nc(-c3ccoc3)no2)CC1	Sialic acid-binding Ig-like lectin 9 (Homo sapiens) (UniProt Q9Y336)	5.09
O=C(c1ccn[nH]1)N1CCCC(n2cncn2)C1 (stereo not given)	Sialic acid-binding Ig-like lectin 9 (Homo sapiens) (UniProt Q9Y336)	4.37
CCn1ncc(CN2CCc3c(nc(-c4cccnc4)[nH]c3=O)C2)c1C	Sialic acid-binding Ig-like lectin 9 (Homo sapiens) (UniProt Q9Y336)	2.36
NC(=O)N1CCC2(CCN(Cc3cccc(F)c3)CC2)CC1	Sialic acid-binding Ig-like lectin 9 (Homo sapiens) (UniProt Q9Y336)	14.9
COCCNc1nc(C2CCCC2)nc2c1CCNCC2	Sialic acid-binding Ig-like lectin 9 (Homo sapiens) (UniProt Q9Y336)	-1.74
O=C1CC(c2ccccc2F)c2c(n3ccsc3nc2=O)N1 (stereo not given)	Sialic acid-binding Ig-like lectin 9 (Homo sapiens) (UniProt Q9Y336)	7.25
O=C(c1cc(COc2ccc3c(c2)OCO3)[nH]n1)N1CCCC1	Sialic acid-binding Ig-like lectin 9 (Homo sapiens) (UniProt Q9Y336)	2.19
COCCn1c2c(ccc1=O)CC(NS(C)(=O)=O)CC2 (stereo not given)	Sialic acid-binding Ig-like lectin 9 (Homo sapiens) (UniProt Q9Y336)	-9.48
Cc1nc(CNC(=O)Cn2nc(-c3ccc(F)cc3)oc2=O)cs1	Sialic acid-binding Ig-like lectin 9 (Homo sapiens) (UniProt Q9Y336)	6.52
O=C(Cn1cc(I)cn1)Nc1cccnc1	Sialic acid-binding Ig-like lectin 9 (Homo sapiens) (UniProt Q9Y336)	6.82
CS(=O)(=O)N[C@@H]1CCO[C@]2(CCN(C(=O)C3=CCCC3)C2)C1	Sialic acid-binding Ig-like lectin 9 (Homo sapiens) (UniProt Q9Y336)	-4.46
Cn1ccc(CN2CCC(c3ccccc3)CC2)cc1=O	Sialic acid-binding Ig-like lectin 9 (Homo sapiens) (UniProt Q9Y336)	11.1
Cc1cc(C)n(CC2CN(CCOc3cccc(C#N)c3)CCO2)n1 (stereo not given)	Sialic acid-binding Ig-like lectin 9 (Homo sapiens) (UniProt Q9Y336)	-7.82
CCn1nc(C)c2ncnc(NCC(=O)N3CCOCC3)c21	Sialic acid-binding Ig-like lectin 9 (Homo sapiens) (UniProt Q9Y336)	10.4

* * *

- TARGET_DESC: Arginase-2, mitochondrial (Homo sapiens)
- ASSAY_DETAILS: in vitro enzyme assay to detect the production of urea directly proportional to the activity of Arginase II; note: in the data most compounds retested in dose-response had high values
- Format: functional
- Parameters: scale not given: direction of the effect not stated beside the values
- RUN_PARAMETERS: 33.3 µM

MOLECULE	TARGET_DESC	Percent Effect, %
Cn1ccnc1CN1CCCCC1Cn1cccn1 (centres undefined)	Arginase-2, mitochondrial (Homo sapiens)	0.215
Clc1ccccc1-c1nc(CNCCn2cccn2)cs1	Arginase-2, mitochondrial (Homo sapiens)	0.383
CCCNC(=O)c1sc(Nc2ccc(Cl)cn2)nc1C	Arginase-2, mitochondrial (Homo sapiens)	-0.88
CN(Cc1ccc(F)cc1)C(=O)Cn1nc(-c2ccc(F)cc2)oc1=O	Arginase-2, mitochondrial (Homo sapiens)	11.8
